Origin of measurements: ChEMBL document CHEMBL1221223

Field: IC50. Provide a value for each of the compounds that follow.
# METHOD_DESCRIPTION: Displacement of [32P]NAADP from NAADP receptor in sea urchin egg homogenate preincubated 10 mins before [32P]NAADP addition
# Format: tissue-based, Lytechinus pictus
Answers are plain numbers, in µM.

> print(dat)
                              smiles.string  reading
1  COc1ccc([C@H]2N[C@H](C(=O)O)Cc3c2[nH]c2ccccc32)cc1CN1CCN(c2ccccc2F)CC1   0.0004

# evaluate next
The reported IC50 of the compound COc1ccc([C@@H]2N[C@H](C(=O)O)Cc3c2[nH]c2ccccc32)cc1CN1CCN(c2ccccc2F)CC1 was 15
